- test-target: T1, wild-type EGFR protein on the surfaces of A431 tumor cells and normal human primary hepatocytes (human, UniProt P00533 25-1210)
- T1 construct: whole, on cells; Same protein on two cell types; also called human epidermal growth factor receptor; her-1
- assay-details: FACS, MFI on A431 cells over MFI on normal primary hepatocytes
Rule: rule met for Selective window (MFIA431/Hepatocytes) not less than 8 ratio, rule not met for anything less.

The following binders have reported results that may help.
INSERT INTO measurements (binder, assigned_category) VALUES
  ('Chimeric antibody c63A10A7 (antibody, human IgG1, V domains shown, also called chimeric antibody 63A10) VH: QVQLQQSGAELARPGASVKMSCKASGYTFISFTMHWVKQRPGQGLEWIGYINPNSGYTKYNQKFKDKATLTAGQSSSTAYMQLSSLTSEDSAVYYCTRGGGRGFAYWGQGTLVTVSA VL: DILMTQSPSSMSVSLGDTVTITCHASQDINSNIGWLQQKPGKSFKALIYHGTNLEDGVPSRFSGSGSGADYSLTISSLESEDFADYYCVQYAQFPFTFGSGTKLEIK', 'rule met'),
  ('Humanized antibody h63A10A7-23 (antibody, human IgG1, V domains shown, Human IgG1 constant region, human kappa constant region) VH: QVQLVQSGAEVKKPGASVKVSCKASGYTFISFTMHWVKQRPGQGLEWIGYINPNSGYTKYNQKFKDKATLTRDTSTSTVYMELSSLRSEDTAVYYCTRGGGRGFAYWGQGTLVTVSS VL: DILMTQSPSSLSASVGDRVTITCHASQDINSNIGWLQQKPGKAPKALIYHGTNLEDGVPSRFSGSGSGADYTLTISSLQPEDFATYYCVQYAQFPFTFGQGTKLEIK', 'rule not met'),
  ('Humanized antibody h63A10A7-21 (antibody, human IgG1, V domains shown, Human IgG1 constant region, human kappa constant region) VH: QVQLVQSGAEVKKPGASVKVSCKASGYTFISFTMHWVKQRPGQGLEWIGYINPNSGYTKYNQKFKDRVTLTRDTSTSTVYMELSSLRSEDTAVYYCTRGGGRGFAYWGQGTLVTVSS VL: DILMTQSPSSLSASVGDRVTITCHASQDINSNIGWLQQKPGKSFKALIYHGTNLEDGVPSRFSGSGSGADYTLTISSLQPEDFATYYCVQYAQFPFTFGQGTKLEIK', 'rule met');

input: Reported Selective window (MFIA431/Hepatocytes) at or above 8 ratio? Humanized antibody h63A10A7-39 (antibody, human IgG1, V domains shown, Human IgG1 constant region, human kappa constant region) VH: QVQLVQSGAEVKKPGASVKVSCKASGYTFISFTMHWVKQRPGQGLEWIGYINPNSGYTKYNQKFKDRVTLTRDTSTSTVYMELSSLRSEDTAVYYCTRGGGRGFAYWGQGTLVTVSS VL: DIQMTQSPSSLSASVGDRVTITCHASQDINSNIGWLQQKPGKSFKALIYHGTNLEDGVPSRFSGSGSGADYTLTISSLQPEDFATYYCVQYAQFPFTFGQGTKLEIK
output: rule not met

input: Reported Selective window (MFIA431/Hepatocytes) at or above 8 ratio? Humanized antibody h63A10A7-37 (antibody, human IgG1, V domains shown, Human IgG1 constant region, human kappa constant region) VH: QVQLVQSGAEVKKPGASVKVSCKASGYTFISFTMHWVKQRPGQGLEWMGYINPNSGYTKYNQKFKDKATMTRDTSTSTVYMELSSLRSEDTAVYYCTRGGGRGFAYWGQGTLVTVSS VL: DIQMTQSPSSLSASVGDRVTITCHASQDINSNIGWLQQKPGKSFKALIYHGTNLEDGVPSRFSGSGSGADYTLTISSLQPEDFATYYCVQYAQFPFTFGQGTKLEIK
output: rule not met

input: Reported Selective window (MFIA431/Hepatocytes) at or above 8 ratio? Humanized antibody h63A10A7-19 (antibody, human IgG1, V domains shown, Human IgG1 constant region, human kappa constant region) VH: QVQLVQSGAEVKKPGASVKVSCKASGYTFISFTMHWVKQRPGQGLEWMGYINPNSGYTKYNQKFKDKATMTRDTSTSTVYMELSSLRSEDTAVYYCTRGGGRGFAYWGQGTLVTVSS VL: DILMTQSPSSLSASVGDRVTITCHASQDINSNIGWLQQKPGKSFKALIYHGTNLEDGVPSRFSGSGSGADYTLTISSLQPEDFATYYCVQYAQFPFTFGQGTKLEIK
output: rule met

input: Reported Selective window (MFIA431/Hepatocytes) at or above 8 ratio? Humanized antibody h63A10A7-26 (antibody, human IgG1, V domains shown, Human IgG1 constant region, human kappa constant region) VH: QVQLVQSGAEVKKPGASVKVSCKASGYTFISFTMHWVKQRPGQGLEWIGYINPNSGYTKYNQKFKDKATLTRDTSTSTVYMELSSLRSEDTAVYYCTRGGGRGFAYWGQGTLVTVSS VL: DILMTQSPSSLSASVGDRVTITCHASQDINSNIGWYQQKPGKSFKALIYHGTNLEDGVPSRFSGSGSGADFTLTISSLQPEDFATYYCVQYAQFPFTFGQGTKLEIK
output: rule met
